B1: HDV Ribozyme (parent)
chain: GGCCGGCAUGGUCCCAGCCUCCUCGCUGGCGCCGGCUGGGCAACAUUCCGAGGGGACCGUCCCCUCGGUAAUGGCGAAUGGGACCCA

- Variants of: B1
- assay_name: self-cleavage, relative activity (ratio to wild type); higher = more cleavage; co-transcriptional
experimental_endpoint: self-cleavage

Consider the reported self-cleavage for these variants:
>>> value_observed("U37G G39C")
0.185
>>> value_observed("C26G U69A")
0.886
>>> value_observed("C3A C14G")
0.17

Please supply the value of reported self-cleavage for the item G2A U47G
0.374

Please supply the value of reported self-cleavage for the item G6A U46C
0.508

Please supply the value of reported self-cleavage for the item U20G G40U
0.131

Please supply the value of reported self-cleavage for the item G59U C64A
0.899

Please supply the value of reported self-cleavage for the item C18U U20G
0.277

Please supply the value of reported self-cleavage for the item C15U U27C
0.712
